- Target Of Assay: CYP2C19 (Homo sapiens, UniProt P33261)
- Sequence (P33261 whole entry): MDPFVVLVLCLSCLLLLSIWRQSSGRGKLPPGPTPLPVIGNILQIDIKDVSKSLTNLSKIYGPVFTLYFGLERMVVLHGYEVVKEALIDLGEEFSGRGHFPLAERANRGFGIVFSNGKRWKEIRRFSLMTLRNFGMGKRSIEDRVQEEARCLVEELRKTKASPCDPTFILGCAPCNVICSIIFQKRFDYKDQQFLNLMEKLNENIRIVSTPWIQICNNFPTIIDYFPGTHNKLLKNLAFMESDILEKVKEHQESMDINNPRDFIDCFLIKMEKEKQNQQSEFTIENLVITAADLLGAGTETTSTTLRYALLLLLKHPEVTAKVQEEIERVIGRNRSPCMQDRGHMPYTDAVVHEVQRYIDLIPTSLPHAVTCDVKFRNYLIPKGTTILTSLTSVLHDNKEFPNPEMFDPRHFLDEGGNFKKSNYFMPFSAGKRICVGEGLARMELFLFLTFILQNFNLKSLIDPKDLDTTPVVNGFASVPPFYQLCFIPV
- Protocol: Inhibition of CYP2C19 (unknown origin) using omeprazole substrate at 10 uM
- Format: ADME
- Run Conditions: probe omeprazole
Record condition met whenever inhibition at 10 µM is at 70% or higher; record condition not met when lower.

- Compound: "CC(C)(C)OC(=O)N1CC[C@@H](c2ccc(Cl)cc2)[C@H](COc2cc(F)c(S(=O)(=O)Nc3ncns3)cc2F)C1 (relative stereo)"
  Group: "condition met"
- Compound: "Cc1nsc(NS(=O)(=O)c2cc(F)c(OC[C@@H]3CNCC[C@H]3c3ccc(Cl)cc3)cc2F)n1 (relative stereo)"
  Group: "condition met"
- Compound: "O=S(=O)(Nc1ncc(Cl)s1)c1cc(F)c(OC[C@@H]2CNCC[C@H]2c2ccc(Cl)cc2)cc1F (relative stereo)"
  Group: "condition not met"
- Compound: "O=C1C[C@@H](c2ccc(F)cc2)[C@H](COc2cc(F)c(S(=O)(=O)Nc3ncns3)cc2F)CN1 (relative stereo)"
  Group: "condition not met"
- Compound: "O=S(=O)(Nc1ncns1)c1cc(F)c(OC[C@@H]2CCCC[C@H]2c2ccc(Cl)cc2)cc1F (relative stereo)"
  Group: "condition met"
- Compound: "O=S(=O)(Nc1ncns1)c1cc(F)c(OC[C@@H]2CNCC[C@H]2c2ccc(F)cc2)cc1F (relative stereo)"
  Group: "condition met"

Let us examine a further case.
Q: Decide: inhibition at 10 µM of O=S(=O)(Nc1ncc(F)cn1)c1cc(F)c(OC[C@@H]2CNCC[C@H]2c2ccc(Cl)cc2)cc1F (relative stereo) >= 70%?
Ans: condition not met

----------
- Target Of Assay: CYP3A4 (Homo sapiens, UniProt P08684)
- Sequence (P08684 whole entry): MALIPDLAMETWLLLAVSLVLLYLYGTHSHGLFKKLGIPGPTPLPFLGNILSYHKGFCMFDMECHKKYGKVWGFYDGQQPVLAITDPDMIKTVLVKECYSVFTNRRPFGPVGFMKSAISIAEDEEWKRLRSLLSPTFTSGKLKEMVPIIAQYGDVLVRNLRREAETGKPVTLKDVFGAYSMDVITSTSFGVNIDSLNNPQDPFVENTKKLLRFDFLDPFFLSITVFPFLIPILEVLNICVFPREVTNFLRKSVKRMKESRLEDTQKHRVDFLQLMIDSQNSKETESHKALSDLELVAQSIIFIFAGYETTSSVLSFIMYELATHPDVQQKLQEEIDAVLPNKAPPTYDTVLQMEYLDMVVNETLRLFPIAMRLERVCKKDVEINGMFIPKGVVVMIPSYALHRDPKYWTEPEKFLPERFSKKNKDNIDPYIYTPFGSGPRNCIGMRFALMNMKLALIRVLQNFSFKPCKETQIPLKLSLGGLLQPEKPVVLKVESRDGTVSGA
- Protocol: Inhibition of CYP3A4 (unknown origin) using midazolam substrate at 10 uM
- Type: ADME
- Run Conditions: probe midazolam
Observed Property: inhibition at 10 µM (%)
Write the answer as a number in %, unit excluded.

- Compound: "CN1CC[C@@H](c2ccc(Cl)cc2)[C@H](COc2cc(F)c(S(=O)(=O)Nc3ncns3)cc2F)C1 (relative stereo)"
  Observed Property: "inhibition at 10 µM"
  Reported Measurement: 97

Q: Name the reported inhibition at 10 µM value associated with the compound Cc1nsc(NS(=O)(=O)c2cc(F)c(OC[C@@H]3CNCC[C@H]3c3ccc(Cl)cc3)cc2F)n1 (relative stereo)
Ans: 61

Q: Name the reported inhibition at 10 µM value associated with the compound O=S(=O)(Nc1ccc(F)cn1)c1cc(F)c(OC[C@@H]2CNCC[C@H]2c2ccc(Cl)cc2)cc1F (relative stereo)
Ans: 42

Q: Name the reported inhibition at 10 µM value associated with the compound O=S(=O)(Nc1ncns1)c1cc(F)c(OC[C@@H]2CN(CC(F)(F)F)CC[C@H]2c2ccc(Cl)cc2)cc1F (relative stereo)
Ans: 97

Q: Name the reported inhibition at 10 µM value associated with the compound O=S(=O)(Nc1ncns1)c1cc(F)c(OCC2(F)CNCCC2c2ccc(F)cc2)cc1F (stereo not given)
Ans: 94

Q: Name the reported inhibition at 10 µM value associated with the compound O=S(=O)(Nc1ncns1)c1cc(F)c(OC[C@H]2CNCC[C@@H]2c2ccc(F)c(F)c2)cc1F (relative stereo)
Ans: 90

Q: Name the reported inhibition at 10 µM value associated with the compound Cc1cnc(NS(=O)(=O)c2cc(F)c(OC[C@@H]3CNCC[C@H]3c3ccc(Cl)cc3)cc2F)s1 (relative stereo)
Ans: 22

Q: Name the reported inhibition at 10 µM value associated with the compound O=S(=O)(Nc1ncc(F)cn1)c1cc(F)c(OC[C@@H]2CNCC[C@H]2c2ccc(Cl)cc2)cc1F (relative stereo)
Ans: 25

Q: Name the reported inhibition at 10 µM value associated with the compound O=S(=O)(Nc1ncns1)c1cc(F)c(OC[C@@H]2CCNC[C@H]2c2ccc(F)cc2)cc1F (relative stereo)
Ans: 89

Q: Name the reported inhibition at 10 µM value associated with the compound O=S(=O)(Nc1ncc(Cl)s1)c1cc(F)c(OC[C@@H]2CNCC[C@H]2c2ccc(Cl)cc2)cc1F (relative stereo)
Ans: 11

Q: Name the reported inhibition at 10 µM value associated with the compound O=C1C[C@@H](c2ccc(F)cc2)[C@H](COc2cc(F)c(S(=O)(=O)Nc3ncns3)cc2F)CN1 (relative stereo)
Ans: 95

Q: Name the reported inhibition at 10 µM value associated with the compound Cc1cc(NS(=O)(=O)c2cc(F)c(OC[C@@H]3CNCC[C@H]3c3ccc(Cl)cc3)cc2F)no1 (relative stereo)
Ans: 24

Q: Name the reported inhibition at 10 µM value associated with the compound O=S(=O)(Nc1ncccn1)c1cc(F)c(OC[C@@H]2CNCC[C@H]2c2ccc(Cl)cc2)cc1F (relative stereo)
Ans: 12

Q: Name the reported inhibition at 10 µM value associated with the compound "O=S(=O)(Nc1ncns1)c1cc(F)c(OC[C@@H]2CN(CCF)CC[C@H]2c2ccc(Cl)cc2)cc1F"
Ans: 98

Q: Name the reported inhibition at 10 µM value associated with the compound O=S(=O)(Nc1ncns1)c1cc(F)c(OC[C@H]2CNCC[C@@H]2c2ccc(Cl)c(F)c2)cc1F (relative stereo)
Ans: 96

The measurements presented in this section are drawn from ChEMBL document CHEMBL3352194.
